Here's what we have: IC50 numbers for CDK7 (Homo sapiens (Human), UniProt P50613).

**Query** Entry N#Cc1cnc(N[C@@H]2CCC[C@H](NC(=O)c3ccc(N)cc3)C2)nc1-c1c[nH]c2ccccc12 [Compound 107] , system CDK7 (Homo sapiens (Human), UniProt P50613): what IC50 was measured?
**Result** < 100 nM

**Query** What reported IC50 corresponds to CN(C)CCCC(=O)Nc1ccc(C(=O)N[C@H]2CCC[C@@H](Nc3ncc(Cl)c(-c4c[nH]c5ccccc45)n3)C2)cc1 [Compound 105] on CDK7 (Homo sapiens (Human), UniProt P50613)?
**Result** < 100 nM

---

So I've got IC50 readings for UniProtKB P50613, take a look.

Nc1ccc(C(=O)N[C@H]2CCC[C@@H](Nc3ncc(Cl)c(-c4cccnc4)n3)C2)cc1	> 1000 nM

**Query** For the compound Nc1ccc(C(=O)N[C@H]2CCC[C@@H](Nc3ncc(Cl)c(-c4c[nH]c5ccccc45)n3)C2)cc1 , what IC50 is on record?
**Result** 100 to 1000 nM

**Query** What value of IC50 has been reported for the following compound? Nc1ccc(C(=O)N[C@H]2C[C@H](O)C[C@@H](Nc3ncc(Cl)c(-c4c[nH]c5ccccc45)n3)C2)cc1 (racemic)
**Result** < 100 nM

**Query** Reported IC50 for NC(=O)C(=O)Nc1ccc(C(=O)N[C@H]2CCC[C@@H](Nc3ncc(Cl)c(-c4c[nH]c5ccccc45)n3)C2)cc1 : what is it?
**Result** 100 to 1000 nM

**Query** Would you kindly share the measured IC50 for Nc1ccc(NC(=O)[C@H]2CCC[C@@H](Nc3ncc(Cl)c(-c4c[nH]c5ccccc45)n3)C2)cc1 ?
**Result** < 100 nM
